Attribution: patent US10513567B2

Assay: Fragmentation (hydrolysis) of WCL pyridine adducts and oligocations in deuterated aqueous buffer followed by 1H NMR
Type: physicochemical
Settings: 37° C.; relative to 5i
Criterion: krel meeting or surpassing 10. Met: Condition met. Not met: Condition not met.

# count of solved cases: 5
>  <compound>
COC(=O)c1cc[n+](C2CCC3SC2CCC3[n+]2ccc(C(=O)OC)cc2)cc1.O=[N+]([O-])[O-].O=[N+]([O-])[O-] (stereo not shown) [Compound 5c]

>  <assigned.class>
Condition not met

$$$$
>  <compound>
COc1cc(Br)c[n+](C2CCC3SC2CCC3[n+]2cc(Br)cc(OC)c2)c1.O=[N+]([O-])[O-].O=[N+]([O-])[O-] (stereo not shown) [Compound 5i]

>  <assigned.class>
Condition not met

$$$$
>  <compound>
NC(=O)c1cc(Br)c[n+](C2CCC3SC2CCC3[n+]2cc(Br)cc(C(N)=O)c2)c1.O=S(=O)([O-])C(F)(F)F.O=S(=O)([O-])C(F)(F)F (stereo not shown) [Compound 5j]

>  <assigned.class>
Condition met

$$$$
>  <compound>
COC(=O)c1cc(C(=O)OC)c[n+](C2CCC3SC2CCC3[n+]2cc(C(=O)OC)cc(C(=O)OC)c2)c1.O=S(=O)([O-])C(F)(F)F.O=S(=O)([O-])C(F)(F)F (stereo not shown) [Compound 5k]

>  <assigned.class>
Condition met

$$$$
>  <compound>
COC(=O)c1cc(Br)c[n+](C2CCC3SC2CCC3[n+]2cc(Br)cc(C(=O)OC)c2)c1.O=S(=O)([O-])C(F)(F)F.O=S(=O)([O-])C(F)(F)F (stereo not shown) [Compound 5l]

>  <assigned.class>
Condition met

$$$$

Textbook exercise: given the entry FC(F)(F)c1ccc[n+](C2CCC3SC2CCC3[n+]2cccc(C(F)(F)F)c2)c1.O=[N+]([O-])[O-].O=[N+]([O-])[O-] (stereo not shown) [Compound 5g] , state whether its krel is greater than or equal to 10.
Condition met

Textbook exercise: given the entry N#Cc1ccc[n+](C2CCC3SC2CCC3[n+]2cccc(C#N)c2)c1.O=[N+]([O-])[O-].O=[N+]([O-])[O-] (stereo not shown) [Compound 5h] , state whether its krel is greater than or equal to 10.
Condition not met
